Numbers sourced from patent US20150274820A1.

Molecular target: T1, recombinant human VEGF165 (human, UniProt P15692 27-191)
T1 construct: mature; Isoform VEGF165 of the entry; also called hVEGF165; hVEGF
T1 sequence (P15692 other isoform, or with tags, fused parts or gaps): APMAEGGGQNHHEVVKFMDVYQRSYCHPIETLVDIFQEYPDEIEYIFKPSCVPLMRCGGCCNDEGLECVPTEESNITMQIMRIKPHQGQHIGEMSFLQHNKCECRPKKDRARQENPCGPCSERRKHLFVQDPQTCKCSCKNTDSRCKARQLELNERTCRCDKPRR
Assay: Biacore SPR, VEGF immobilized, pH 5
MEASURED ATTRIBUTE: pKd
Convention used: pKd is expressed as -log10 of the molar concentration.

According to the records, this binder 578minmax (scFv, also called ESBA903; 903) scFv: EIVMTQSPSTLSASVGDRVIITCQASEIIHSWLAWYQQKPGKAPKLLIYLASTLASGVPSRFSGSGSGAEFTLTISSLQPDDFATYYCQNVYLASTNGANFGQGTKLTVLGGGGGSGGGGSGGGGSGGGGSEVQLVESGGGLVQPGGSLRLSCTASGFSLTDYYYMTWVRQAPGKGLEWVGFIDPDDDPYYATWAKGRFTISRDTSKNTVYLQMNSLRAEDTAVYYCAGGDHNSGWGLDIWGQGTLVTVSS displays pKd of 9.20

According to the records, this binder 578minmax FW1.4_DHP (scFv, tied by name only) scFv: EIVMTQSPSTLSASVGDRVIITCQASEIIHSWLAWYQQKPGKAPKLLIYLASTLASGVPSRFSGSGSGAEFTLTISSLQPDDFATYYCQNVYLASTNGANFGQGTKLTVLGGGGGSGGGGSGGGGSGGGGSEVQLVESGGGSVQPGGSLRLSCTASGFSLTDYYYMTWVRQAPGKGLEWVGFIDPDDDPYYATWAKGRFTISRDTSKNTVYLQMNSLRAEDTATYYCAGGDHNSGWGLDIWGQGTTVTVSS displays pKd of 9.24

According to the records, this binder 578-max-min (scFv, also called Protein Nr; 902) scFv: EIVMTQSPSTLSASVGDRVIITCQASEIIHSWLAWYQQKPGKAPKLLIYLASTLASGVPSRFSGSGSGTQFTLTISSLQPDDFATYYCQNVYLASTNGANFGQGTKLTVLGGGGGSGGGGSGGGGSGGGGSEVQLVESGGGLVQPGGSLRLSCAASGFSLTDYYYMTWVRQAPGKGLEWVSFIDPDDDPYYATWAKGRFTISRDNSKNTLYLQMNSLRAEDTAVYYCAKGDHNSGWGLDIWGQGTLVTVSS displays pKd of 8.18
